# Test system: C. gattii
# Assay comment: CLSI broth microdilution MIC (Example 6)
# Type: cell-based, Cryptococcus gattii
# Assay setup: human clinical isolate C. gatti 17-90232099
Endpoint: MIC (µg/mL)
Kindly provide the numeric value in µg/mL only, without the unit symbol.

Solved cases below.
>>> reported_value("Cc1ccc(/C=N/Nc2cc(N/N=C/c3ccc(C)cc3)nc(N)n2)cc1")
2
>>> reported_value("Cl.N#Cc1ccc(C=NNC(=N)NN=Cc2ccc(C#N)cc2)cc1")
32
>>> reported_value("[H]/N=C(\\N)NN=C(CC1CCCCC1)c1ccc(Cl)cc1")
8
>>> reported_value("C[C@@H]1[C@H](O)[C@@H](C)/C=C/C=C/C=C/C=C/C=C/C=C/C=C/[C@H](O[C@@H]2O[C@H](C)[C@@H](O)[C@H](N)[C@@H]2O)C[C@@H]2O[C@](O)(C[C@@H](O)C[C@@H](O)[C@H](O)CC[C@@H](O)C[C@@H](O)CC(=O)O[C@H]1C)C[C@H](O)[C@H]2C(=O)O [Amphotericin B, reference compound]")
1
>>> reported_value("Cl.N=C(NN=Cc1cccc(F)c1)NN=Cc1cccc(F)c1")
8
>>> reported_value("[H]/N=C(\\N)NN=C(CCCCCC)c1ccc(Cl)cc1")
8
>>> reported_value("CN(C)c1ccc(/C=N/NC(=N)N/N=C/c2ccc(N(C)C)cc2)cc1.Cl")
4
>>> reported_value("Nc1nc(NN=Cc2ccc(F)cc2)cc(NN=Cc2ccc(F)cc2)n1")
4

Incoming: Name the recorded MIC for `Cl.N=C(NN=Cc1cc(O)c(O)c(O)c1)NN=Cc1cc(O)c(O)c(O)c1` .
Outgoing: 32

====

# System: Cryptococcus neoformans
# Assay comment: CLSI broth microdilution MIC (Example 6)
# Assay type: cell-based
# Assay setup: human clinical isolate C. neoformans var grubii 17-93996464
Endpoint: MIC (µg/mL)
Give just the number in µg/mL; leave the unit off.

In the examples that follow, each entry is paired with its recorded MIC.
>>> reported_value("C[C@@H]1[C@H](O)[C@@H](C)/C=C/C=C/C=C/C=C/C=C/C=C/C=C/[C@H](O[C@@H]2O[C@H](C)[C@@H](O)[C@H](N)[C@@H]2O)C[C@@H]2O[C@](O)(C[C@@H](O)C[C@@H](O)[C@H](O)CC[C@@H](O)C[C@@H](O)CC(=O)O[C@H]1C)C[C@H](O)[C@H]2C(=O)O [Amphotericin B, reference compound]")
1
>>> reported_value("Cc1ccc(/C=N/Nc2cc(N/N=C/c3ccc(C)cc3)nc(N)n2)cc1")
2
>>> reported_value("Cl.N=C(NN=Cc1cc(O)c(O)c(O)c1)NN=Cc1cc(O)c(O)c(O)c1")
32
>>> reported_value("CN(C)c1ccc(/C=N/NC(=N)N/N=C/c2ccc(N(C)C)cc2)cc1.Cl")
4
>>> reported_value("Cl.N#Cc1ccc(C=NNC(=N)NN=Cc2ccc(C#N)cc2)cc1")
32
>>> reported_value("[H]/N=C(\\N)NN=C(CCCCCC)c1ccc(Cl)cc1")
8

Incoming: Look up MIC with Cryptococcus neoformans for this compound: `Cl.N=C(NN=Cc1cccc(F)c1)NN=Cc1cccc(F)c1`
Outgoing: 8

Incoming: Item: `Nc1nc(NN=Cc2ccc(F)cc2)cc(NN=Cc2ccc(F)cc2)n1` Test system: Cryptococcus neoformans Read-out: MIC Value: ?
Outgoing: 32
